Field: CPE inhibition. Provide a value for each of the compounds that follow.
- Experiment Summary: inhibitors of Bluetongue virus cytopathic effect, confirmation, arbovirus, BSR cells (AID 1250)
- Stated Conditions: BSR cells, Bluetongue virus CPE, ATP luminescence, 72 h; at 20 µM (top of the series)
Form entry: value (%) — number only.

Record COc1ccc(C2=Nn3c(nnc3-c3ccncc3)SC2)cc1OC , field CPE inhibition: 20.1

Record Oc1c(Br)cc(C2N=C(c3ccccc3)NO2)cc1Br (stereo not drawn) , field CPE inhibition: 23.9

Record COc1cccc2sc(NN)nc12 , field CPE inhibition: 15.8

###

- Experiment Summary: inhibitors of Bluetongue virus cytopathic effect, confirmation, arbovirus, BSR cells (AID 1250)
- Stated Conditions: BSR cells, Bluetongue virus CPE, ATP luminescence, 72 h; at 20 µM (top of the series)
Measurement Name: CPE inhibition (%)
Form entry: value (%) — number only.

Record CCN(Cc1ccncc1)Cc1c(O)ccc2cc(Br)ccc12 , field CPE inhibition: 8.02

Record N#Cc1c2n(c3c(=S)nc[nH]c13)CCCCC2 , field CPE inhibition: 9.66

Record O=C(Nc1scc(-c2ccc(F)cc2)c1C(=O)O)c1ccco1 , field CPE inhibition: 10

Record Cc1ccccc1CSc1nnc(NC(=O)C2COc3ccccc3O2)s1 (stereo not given) , field CPE inhibition: 18.9

Record CCOc1ccc(-n2c(=S)sc3c(=O)[nH]c(SCC(=O)C(C)(C)C)nc32)cc1 , field CPE inhibition: 7.23

Record COc1cccc(C2=CC(c3ccc(N(C)C)cc3)n3ncnc3N2)c1 (stereo not given) , field CPE inhibition: 8.59

Record CC1(C)C2CCC(C2)C1(C)NC(=O)CNCc1cccs1 (stereo not given) , field CPE inhibition: 2.65

Record CCc1nnc(NC(=O)c2cc3ccccc3oc2=O)s1 , field CPE inhibition: -0.17

Record O=C(O)/C(=C\c1ccc(-c2ccc(F)cc2)o1)c1ccccc1 , field CPE inhibition: 24.5

Record CCc1cccc(C)c1NC(=O)CN(C)Cc1ccc(Br)cc1 , field CPE inhibition: 10.2

Record O=C(CSc1ccccc1)Nc1cc(Cl)ccc1Oc1ccccc1 , field CPE inhibition: 3.1

Record CC1Cc2ccccc2N1C(=O)CSc1ccccc1 (stereo not given) , field CPE inhibition: -1.84

Record Brc1ccccc1-c1nnc(SCc2nc3ccccc3s2)o1 , field CPE inhibition: 0.37

Record OC(c1ccccc1)C1CN(Cc2ccccc2)CCC1(O)c1ccccc1 (stereo not given) , field CPE inhibition: 20.9

Record Cc1ccc(NC2c3ncccc3C(=O)N2C2CCCCC2)cc1C (stereo not given) , field CPE inhibition: 12.7

###

- Experiment Summary: inhibitors of Bluetongue virus cytopathic effect, confirmation, arbovirus, BSR cells (AID 1250)
- Stated Conditions: BSR cells, Bluetongue virus CPE, ATP luminescence, 72 h; at 20 µM (top of the series)
Measurement Name: CPE inhibition (%)
Form entry: value (%) — number only.

Record O=C(Nc1nnc(SCc2ccccc2Cl)s1)C1COc2ccccc2O1 (stereo not drawn) , field CPE inhibition: 16.7

Record Cc1ccc(S(=O)(=O)CCSc2cccc(C(=O)Nc3ccccc3C(=O)O)c2)cc1 , field CPE inhibition: 28.2

Record N#Cc1c(NC(=O)CSc2nnc(-c3ccccc3)o2)sc2c1CCCC2 , field CPE inhibition: -0.12

Record CCOC(=O)CC1=NS(=O)(=O)c2ccccc2N1 , field CPE inhibition: 2.01

Record O=C(CSCc1ccccc1)Nc1cccc(C(=O)Nc2ccccc2C(=O)O)c1 , field CPE inhibition: 9.16

Record C=CCOc1c(Br)cc(/C=N/Nc2ccc(C(=O)O)cc2)cc1OCC , field CPE inhibition: 14.1

Record O=[N+]([O-])c1ccc(-c2c(O)c3ccccc3c3nc4ccccc4nc23)cc1 , field CPE inhibition: 25.8

Record COc1ccc(C(=O)Nc2cc(Cl)ccc2C(=O)O)cc1 , field CPE inhibition: 17.7

Record O=C1CC(c2cccc([N+](=O)[O-])c2)c2ccc3ccccc3c2N1 (stereo not drawn) , field CPE inhibition: 8.81

Record Fc1ccc2nc(Nc3nc4c(F)cccc4s3)sc2c1 , field CPE inhibition: 20.9

Record COC(=O)c1c(-c2ccccc2)csc1N1C(=O)Nc2ccccc2N1O , field CPE inhibition: 10.9

Record O=C1NC(=Nc2ccc(Cl)cc2)SC1Cc1cccc(Cl)c1Cl (stereo not drawn) , field CPE inhibition: 12.4

Record O=C(O)c1cc(-c2ccc(/C=N/Nc3ccc([N+](=O)[O-])cn3)o2)ccc1Cl , field CPE inhibition: 21.4
